Overview of recorded EC50 for various compounds
Biological target: human TLR7 (Homo sapiens, UniProt Q9NYK1)
Construct: that the line is stably transfected with the human TLR7 gene is own knowledge of the vendor's product)
Sequence (Q9NYK1 27-1049): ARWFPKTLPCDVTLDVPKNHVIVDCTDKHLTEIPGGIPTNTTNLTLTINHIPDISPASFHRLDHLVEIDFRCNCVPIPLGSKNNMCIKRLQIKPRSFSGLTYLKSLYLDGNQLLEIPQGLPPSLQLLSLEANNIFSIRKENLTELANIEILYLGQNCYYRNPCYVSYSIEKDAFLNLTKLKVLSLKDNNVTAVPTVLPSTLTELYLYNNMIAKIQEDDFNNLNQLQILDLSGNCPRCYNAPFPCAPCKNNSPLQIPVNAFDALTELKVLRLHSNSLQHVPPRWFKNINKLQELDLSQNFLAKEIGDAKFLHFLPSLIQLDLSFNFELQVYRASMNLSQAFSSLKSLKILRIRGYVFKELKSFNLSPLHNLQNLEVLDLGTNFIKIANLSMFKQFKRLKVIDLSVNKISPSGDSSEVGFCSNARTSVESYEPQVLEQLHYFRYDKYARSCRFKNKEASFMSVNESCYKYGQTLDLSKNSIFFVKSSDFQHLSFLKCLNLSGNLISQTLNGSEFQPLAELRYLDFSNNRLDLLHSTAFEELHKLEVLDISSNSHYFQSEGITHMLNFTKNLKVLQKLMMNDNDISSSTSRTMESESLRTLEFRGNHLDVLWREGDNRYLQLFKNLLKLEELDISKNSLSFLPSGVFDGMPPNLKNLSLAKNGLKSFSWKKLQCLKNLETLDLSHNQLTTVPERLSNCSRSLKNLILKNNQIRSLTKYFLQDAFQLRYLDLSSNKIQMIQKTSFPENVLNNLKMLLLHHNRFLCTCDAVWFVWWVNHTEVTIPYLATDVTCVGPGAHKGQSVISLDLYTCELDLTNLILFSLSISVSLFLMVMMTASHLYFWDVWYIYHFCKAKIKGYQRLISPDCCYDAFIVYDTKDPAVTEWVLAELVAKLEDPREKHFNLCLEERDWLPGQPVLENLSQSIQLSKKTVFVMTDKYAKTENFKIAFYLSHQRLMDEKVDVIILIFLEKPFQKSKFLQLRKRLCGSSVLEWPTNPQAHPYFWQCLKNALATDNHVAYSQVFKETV
Test: Agonistic activity of compounds on HEK-Blue hTLR7 cells (QUANTI-Blue reporter, OD620)
Settings: HEK-Blue hTLR7 cells, 20 h incubation
Quick reminder: number only, in nM, skip the unit.

The following compounds have reported results that may help.
1. CCCCc1nc2c(N)nc3cc(C)sc3c2n1CC1CCN(CCOCCOCCOCCOCCOCCOCCOC)CC1: 1690
2. CCCCc1nc2c(N)nc3ccsc3c2n1CC1CCN(C)CC1: 270

Turning now to a further record.
# lookup: EC50 of `CCCCc1nc2c(N)nc3ccsc3c2n1CC1CCNCC1`
140
